- experiment-description: in vitro
- stated-conditions: human, hela cells, % viability
quantity: viability at 28.5 h, 10 µM (%)
Your answer should be a plain number; it is taken to be in %.

Observe how each entry below is paired with its result.
{"columns": ["compound", "viability at 28.5 h, 10 µM / %"],
 "data": [
  ["Nc1ncc(-c2cccs2)nc1-c1ccc(F)c(Cl)c1 [CBK063990]", 101],
  ["CN(C)c1cccc(Nc2ccc(/C=C/c3ccccc3)cn2)c1 [CBK036984]", 98.7],
  ["O=C(C1=C(O)C(=O)N(Cc2cccnc2)C1c1ccc(Cl)cc1Cl)c1ccccc1 (stereo not drawn) [CBK263367]", 101],
  ["CC(C)NC(=O)N[C@H]1CCN2C(=O)c3ccc(Cl)cc3NC(=O)[C@H]12 [CBK289343]", 99.5],
  ["CCCNCc1ccc(-c2nnn(CC(=O)NCc3ccc(C4CCC4)cc3)n2)cc1 [CBK167525C]", 105]
]}

[ask] Please give the documented viability at 28.5 h, 10 µM of CCCCNc1cc(N2CCN(C(=O)COC)CC2)nc(N)n1 [CBK304078]
[reply] 98.8

[ask] Please give the documented viability at 28.5 h, 10 µM of Cc1cccc(C(=O)NNC(=O)c2cccc(Cl)c2)c1 [CBK261676]
[reply] 107

[ask] Please give the documented viability at 28.5 h, 10 µM of O=C1N[C@@H]2CCN(S(=O)(=O)c3cccs3)[C@@H]2C(=O)N1c1ccc(F)cc1 [CBK289326]
[reply] 89.1

[ask] Please give the documented viability at 28.5 h, 10 µM of C=CCNC(=O)N1CC[C@H]2CC(=O)N(Cc3ccc4c(c3)OCO4)CC[C@H]2C1 [CBK288794]
[reply] 97.8

###

- experiment-description: in vitro
- stated-conditions: human, hela cells, % viability
Each entry below carries its reported viability at 28.5 h, 10 µM.
Your answer should be a plain number; it is taken to be in %.

Observe how each entry below is paired with its result.
{"columns": ["molecule", "reported-measurement"],
 "data": [
  ["Cn1c(COc2cncc(Cl)n2)cc2ccccc21", 89.9],
  ["O=C(Nc1ccc(-c2c3ccccc3c(-c3ccc(NC(=O)c4cccc5ccccc45)cc3)c3ccccc23)cc1)c1cccc2ccccc12", 93.6],
  ["COc1ccc([C@@]23CC[C@@H](NC(=O)Nc4ccc(OC(F)(F)F)cc4)C[C@@H]2N(C)CC3)cc1OC [CBK036455T]", 82.2]
]}

Then this molecule:
[ask] Please give the documented viability at 28.5 h, 10 µM of Cc1nc(CNCc2c(C)nn(C)c2N(C)C)cs1
[reply] 95.3

###

Each entry below carries its reported viability at 28.5 h, 10 µM.
- experiment-description: in vitro
- stated-conditions: human, hela cells, % viability
Your answer should be a plain number; it is taken to be in %.

{"columns": ["compound", "value-unit", "reported-measurement"],
 "data": [
  ["COc1ccccc1CCC(=O)Nc1cnn(C)c1 [CBK287995]", "%", 117]
]}

[ask] Please give the documented viability at 28.5 h, 10 µM of O=C(Nc1cccc(C(F)(F)F)c1)N[C@H]1[C@H](O)[C@@H](N2CCCC2)[C@@H]2OC[C@H]1O2 [CBK288828]
[reply] 105

[ask] Please give the documented viability at 28.5 h, 10 µM of O=C1Nc2c(cnn2-c2ccccc2Cl)C2=NCCCN12 [CBK283331]
[reply] 100

[ask] Please give the documented viability at 28.5 h, 10 µM of c1ccc(CN(Cc2ccccc2)Cn2c3ccccc3c3ccccc32)cc1 [CBK263575]
[reply] 93.6

[ask] Please give the documented viability at 28.5 h, 10 µM of Cc1nn(C)c(C(=O)Nc2sc3c(c2C#N)CCC(C)C3)c1Br (centres unmarked) [CBK304212]
[reply] 104

###

- experiment-description: in vitro
- stated-conditions: human, hela cells, % viability
Each entry below carries its reported viability at 28.5 h, 10 µM.
Your answer should be a plain number; it is taken to be in %.

Observe how each entry below is paired with its result.
{"columns": ["compound", "value-unit", "viability at 28.5 h, 10 µM"],
 "data": [
  ["NC(=O)c1ccccc1/N=C/c1ccc([N+](=O)[O-])o1", "%", 105],
  ["O=C1CC(c2ccccc2)CC(NCc2ccc3c(c2)OCO3)=C1C(=S)Nc1ccccc1 (stereo not shown)", "%", 94.4],
  ["O=C(CSc1ccccc1)NCc1ccncc1", "%", 96.7],
  ["CN(C)CCCn1nc2n(c1=O)-c1ccccc1SC(c1ccccc1)C2 (stereo not shown)", "%", 105],
  ["CN1CCN(N/C=C2/C(=O)N(c3ccc([N+](=O)[O-])cc3)N=C2c2ccccc2)CC1", "%", 89.6],
  ["Cc1noc(C)c1NC(=O)c1cnccc1C(F)(F)F", "%", 99.1]
]}

[ask] Please give the documented viability at 28.5 h, 10 µM of O=C(NCc1ccncc1)c1ncoc1-c1ccc(F)cc1
[reply] 83.8

[ask] Please give the documented viability at 28.5 h, 10 µM of COc1ccccc1-c1nccnc1NCc1ccccn1
[reply] 108

[ask] Please give the documented viability at 28.5 h, 10 µM of Nc1nc(OCc2ccccc2)cnc1-c1cccc(C(F)(F)F)c1
[reply] 99.4

[ask] Please give the documented viability at 28.5 h, 10 µM of O=c1c(N2CCC(Sc3ccccc3)CC2)nccn1Cc1ccc(-n2cncn2)cc1
[reply] 90.9

###

Each entry below carries its reported viability at 28.5 h, 10 µM.
- experiment-description: in vitro
- stated-conditions: human, hela cells, % viability
Your answer should be a plain number; it is taken to be in %.

{"columns": ["compound", "value-unit", "reported-measurement"],
 "data": [
  ["Cc1nonc1CNC(=O)C1CC2C=CC1C21CC1 (stereo not drawn) [CBK281678]", "%", 91.4]
]}

Then this compound:
[ask] Please give the documented viability at 28.5 h, 10 µM of CCc1cc(C(=O)NC(c2ccc(F)cc2)c2nccn2C)n(C)n1 (stereo not drawn) [CBK281434]
[reply] 108

###

- experiment-description: in vitro
- stated-conditions: human, hela cells, % viability
quantity: viability at 28.5 h, 10 µM (%)
Your answer should be a plain number; it is taken to be in %.

[ask] Please give the documented viability at 28.5 h, 10 µM of Cc1nc2c(c(=O)[nH]1)CN(Cc1cn(C(C)C)c3ccccc13)CC2
[reply] 93.5

[ask] Please give the documented viability at 28.5 h, 10 µM of NCCNCCCCOc1ccc(Cl)c(Cl)c1
[reply] 109

[ask] Please give the documented viability at 28.5 h, 10 µM of CCCCC(c1cccnc1)N(C)C(=O)c1cnc(C)c(C)c1 (stereo not shown)
[reply] 103

###

Each entry below carries its reported viability at 28.5 h, 10 µM.
- experiment-description: in vitro
- stated-conditions: human, hela cells, % viability
Your answer should be a plain number; it is taken to be in %.

Observe how each entry below is paired with its result.
{"columns": ["molecule", "value-unit", "reported-measurement"],
 "data": [
  ["O=C(O)COc1ccc(N2C(=O)c3ccc(Oc4cccc([N+](=O)[O-])c4)cc3C2=O)cc1 [CBK264259]", "%", 107],
  ["CN(C)CC(=O)N1CCN(c2ccc(C(=O)c3ccccc3)cc2[N+](=O)[O-])CC1 [CBK296699]", "%", 85.4],
  ["CC(C)(C)OC(=O)N1CCCC(C(=O)NCc2ccco2)C1 (stereo not drawn) [CBK305102]", "%", 99.1],
  ["O=C(Nc1cccc(Cl)c1Cl)N1CCC(n2c(=O)[nH]c3ccccc32)CC1 [CBK149856]", "%", 94.6],
  ["O=C(CN1CCC(O)(c2ccccc2F)CC1)N1CCCCC1 [CBK281938]", "%", 103]
]}

Then this molecule:
[ask] Please give the documented viability at 28.5 h, 10 µM of Clc1ccc(CNc2ncc(-c3ccc(N4CCOCC4)cc3)n3ccnc23)cc1Cl [CBK091229]
[reply] 84.3

###

- experiment-description: in vitro
- stated-conditions: human, hela cells, % viability
quantity: viability at 28.5 h, 10 µM (%)
Your answer should be a plain number; it is taken to be in %.

{"columns": ["entry-smiles", "viability at 28.5 h, 10 µM (%)"],
 "data": [
  ["CC(C)(CO)Cn1c(=O)[nH]c2ncc(-c3cccnc3)nc21", 107],
  ["Cn1c(=O)c2c(nc(SCC(=O)CSc3nc4c(c(=O)n(C)c(=O)n4C)n3C)n2C)n(C)c1=O", 86.9],
  ["Nc1cc(=O)[nH]c(=O)n1CCc1c[nH]c2ccccc12", 98.1]
]}

[ask] Please give the documented viability at 28.5 h, 10 µM of Cc1cc(OCC(=O)NCCCN2CCOCC2)cc(C)c1Br
[reply] 99.9

[ask] Please give the documented viability at 28.5 h, 10 µM of O=[N+]([O-])c1ccc(N2CCN(S(=O)(=O)c3ccc4ccccc4c3)CC2)cc1
[reply] 93.6

Origin of the recorded values: paper PMC12040169
